Origin of values: patent US20170355757A1

- ASSAY SYSTEM: T1, human C5 R885C-mmh (human, UniProt P01031 19-1676)
- T1 construct: also called human C5 variant R885C
- ASSAY METHOD TEXT: SPR, mAb captured via anti-hFc, 25C

| BINDER | 100 nM Human C5 R885C-mmh Bound (RU) |
| --- | --- |
| H4H12167P (antibody, human IgG4, V domains shown, Human IgG4 Fc with S108P hinge mutation (H4H)) VH: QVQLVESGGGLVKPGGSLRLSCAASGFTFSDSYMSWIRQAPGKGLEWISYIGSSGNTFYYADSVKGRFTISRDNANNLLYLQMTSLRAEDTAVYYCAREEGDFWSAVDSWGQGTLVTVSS VL: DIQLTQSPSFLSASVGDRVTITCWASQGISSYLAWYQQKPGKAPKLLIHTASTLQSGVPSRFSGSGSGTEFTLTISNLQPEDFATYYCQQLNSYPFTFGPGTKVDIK | 163 |
